Experimental System: human TLR8 (Homo sapiens, UniProt Q9NR97)
Sequence (Q9NR97 27-1041): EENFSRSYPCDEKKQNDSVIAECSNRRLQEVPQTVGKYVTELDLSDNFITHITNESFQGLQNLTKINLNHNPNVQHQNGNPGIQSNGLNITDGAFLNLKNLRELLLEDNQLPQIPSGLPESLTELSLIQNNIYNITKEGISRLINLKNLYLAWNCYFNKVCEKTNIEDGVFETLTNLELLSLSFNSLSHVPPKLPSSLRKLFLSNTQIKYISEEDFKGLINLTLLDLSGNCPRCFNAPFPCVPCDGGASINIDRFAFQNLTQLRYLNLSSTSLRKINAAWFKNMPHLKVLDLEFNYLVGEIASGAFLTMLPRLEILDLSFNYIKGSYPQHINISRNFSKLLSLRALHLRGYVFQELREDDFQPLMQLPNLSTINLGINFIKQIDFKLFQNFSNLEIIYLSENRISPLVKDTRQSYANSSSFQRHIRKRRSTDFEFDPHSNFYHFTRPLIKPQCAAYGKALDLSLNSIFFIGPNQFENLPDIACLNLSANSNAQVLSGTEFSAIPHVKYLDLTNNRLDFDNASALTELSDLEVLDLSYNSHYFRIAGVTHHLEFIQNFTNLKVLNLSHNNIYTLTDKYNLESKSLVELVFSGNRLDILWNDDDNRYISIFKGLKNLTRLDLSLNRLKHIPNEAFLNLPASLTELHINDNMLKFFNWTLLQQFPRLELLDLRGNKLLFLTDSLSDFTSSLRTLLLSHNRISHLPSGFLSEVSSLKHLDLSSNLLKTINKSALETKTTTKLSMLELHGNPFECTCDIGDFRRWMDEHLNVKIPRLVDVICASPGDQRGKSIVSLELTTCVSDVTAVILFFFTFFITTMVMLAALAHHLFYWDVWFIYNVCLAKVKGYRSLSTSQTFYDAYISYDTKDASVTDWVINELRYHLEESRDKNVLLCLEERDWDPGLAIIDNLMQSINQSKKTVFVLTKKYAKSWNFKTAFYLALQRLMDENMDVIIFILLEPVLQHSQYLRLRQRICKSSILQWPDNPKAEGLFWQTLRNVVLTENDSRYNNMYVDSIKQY
Test: TLR8 inhibition reporter assay (HEK-Blue SEAP)
Condition Details: HEK-Blue cells overexpressing human TLR8, R848 15.9 μM, 22 hour incubation
IC50 listing for selected compounds.

COc1cc(-c2[nH]c3ccc(C4CCN(CCNC(=O)CCCCCCC(=O)NCCN5CCC(c6ccc7[nH]c(-c8cc(OC)c9ncnn9c8)c(C(C)C)c7c6)CC5)CC4)cc3c2C(C)C)cn2ncnc12 [Example 6] :: 0.2 nM
COc1cc(-c2[nH]c3ccc(C4CCN(C(=O)CCCCCCCCCCCCCCCCC(=O)N5CCC(c6ccc7[nH]c(-c8cc(OC)c9ncnn9c8)c(C(C)C)c7c6)CC5)CC4)cc3c2C(C)C)cn2ncnc12 [Comparator Compound C1, reference compound] :: ≥ 3130 nM
COc1cc(-c2[nH]c3ccc(C4CCN(CCNC(=O)CCCCCCCCCCC(=O)NCCN5CCC(c6ccc7[nH]c(-c8cc(OC)c9ncnn9c8)c(C(C)C)c7c6)CC5)CC4)cc3c2C(C)C)cn2ncnc12 [Example 3] :: 0.32 nM
COc1cc(-c2[nH]c3ccc(C4CCN(CCNC(=O)CCCCCCCCCCCCC(=O)NCCN5CCC(c6ccc7[nH]c(-c8cc(OC)c9ncnn9c8)c(C(C)C)c7c6)CC5)CC4)cc3c2C(C)C)cn2ncnc12 [Example 2] :: 1.6 nM

Please look at the following compound next.
Req: Can you share its IC50? I mean this compound: COc1cc(-c2[nH]c3ccc(C4CCN(CCNC(=O)CCCCCCCCCCCC(=O)NCCN5CCC(c6ccc7[nH]c(-c8cc(OC)c9ncnn9c8)c(C(C)C)c7c6)CC5)CC4)cc3c2C(C)C)cn2ncnc12 [Example 1]
Resp: 1.4 nM
